Recorded Kd for the following binders
assayedTarget: T1, recombinant human LY6H-ECD (C-terminal histidine tag) (human, UniProt O94772 26-115)
T1 construct: The ectodomain was cloned by PCR with a non-native signal peptide and a C-terminal histidine tag; also called recombinant LY6H; hLY6H-ECD; not shown: C-terminal histidine tag
T1 sequence (looked up): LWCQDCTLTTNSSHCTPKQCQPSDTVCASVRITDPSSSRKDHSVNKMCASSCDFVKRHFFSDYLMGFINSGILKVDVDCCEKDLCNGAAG
protocolNotes: Octet Red BLI, antibody on Protein A biosensor, recombinant human LY6H in solution

>  <binder>
12G7-S54A (antibody, V domains shown) VH: QVQLQQWGAGLLKPSETLSLTCAVYGGSFSGYYWSWIRQPPGKGLEWIGEINHAGSTYYNPSLKSRVTMSVDTSKNQFSLKLSSVTAADTAVYYCAKRWELGAFDIWGQGTMVTVSS VL: DIQMTQSPSSLSASVGDRVTITCRASQGISNYLAWYQQKPGKVPKLLIYAASTLQSGVPSRFSGSGSGTDFTLTISSLQPEDVATYYCQKYNSAPRTFGQGTKLEIK

>  <Kd (nM)>
4

$$$$
>  <binder>
12G7 (antibody, V domains shown, Recombinant antibody from H2L2 mice (human variable regions), made in CHO cells, purified on Protein A and detected with anti-human IgG; also called 12G7_19A2; anti-LY6H antibody (12G7)) VH: QVQLQQWGAGLLKPSETLSLTCAVYGGSFSGYYWSWIRQPPGKGLEWIGEINHSGSTYYNPSLKSRVTMSVDTSKNQFSLKLSSVTAADTAVYYCAKRWELGAFDIWGQGTMVTVSS VL: DIQMTQSPSSLSASVGDRVTITCRASQGISNYLAWYQQKPGKVPKLLIYAASTLQSGVPSRFSGSGSGTDFTLTISSLQPEDVATYYCQKYNSAPRTFGQGTKLEIK

>  <Kd (nM)>
4

$$$$
